Answer each item with its documented initial APHA color of the neat distillate.
assay: Distillation of crude isosorbide mixture with added antioxidant: co-distillation and initial distillate color; assay type: physicochemical; details: neat distillate after distillation; ASTM D1209
Returns: the value as a bare number; no unit string appended.

Fill blank: measured initial APHA color of the neat distillate of the compound CCCC(c1cc(C(C)(C)C)c(O)cc1C)c1cc(C(C)(C)C)c(O)cc1C is ____.
10

# iterate: COc1cccc(OC)c1O
18.7

Same lookup for Cc1c(C)c2c(c(C)c1O)CCC(C)(C(=O)O)O2 (stereo not shown) , please.
15

Now the compound COc1cc(C)cc(OC)c1O
13
